// provenance: EPA's ToxValDB 9.5

System: Rattus norvegicus
conditions_used: acute; oral
measured_property: LD50 (mg/kg)
Answer with a number only, understood to be in mg/kg.

• CC(C)(C)CC(C)(C)c1ccc(O)cc1 [4-(1,1,3,3-Tetramethylbutyl)phenol] = 2200

// moving on: another record for LD50
Problem: Return value of LD50 for input CCNc1ccccc1 [N-Ethylaniline] , no commentary.
Result: 300

###

Entries and their log10 of LOAEL values follow.
System: Rattus norvegicus
conditions_used: repeat dose other; oral
// stored as log10 of LOAEL expressed in mg/kg-day

• Clc1cc2oc3c(Cl)c(Cl)c(Cl)cc3c2cc1Cl = -3.80
• ClC1=C(Cl)[C@]2(Cl)[C@H]3[C@H]([C@@H]4C=C[C@H]3C4)[C@@]1(Cl)C2(Cl)Cl = 0.00
• Clc1ccc(C(c2ccc(Cl)cc2)C(Cl)(Cl)Cl)cc1 = 0.60
• O=C1C2(Cl)C3(Cl)C4(Cl)C(Cl)(Cl)C5(Cl)C3(Cl)C1(Cl)C5(Cl)C24Cl (centres undefined) = -0.40
• CCO = 2.50

Turning to the following compound.
Problem: Answer with reported log10 of LOAEL of "C1COCCO1"
Result: 0.00
